- target: Beta-2 adrenergic receptor (Homo sapiens) (UniProt P07550)
- Sequence (P07550 whole entry, looked up): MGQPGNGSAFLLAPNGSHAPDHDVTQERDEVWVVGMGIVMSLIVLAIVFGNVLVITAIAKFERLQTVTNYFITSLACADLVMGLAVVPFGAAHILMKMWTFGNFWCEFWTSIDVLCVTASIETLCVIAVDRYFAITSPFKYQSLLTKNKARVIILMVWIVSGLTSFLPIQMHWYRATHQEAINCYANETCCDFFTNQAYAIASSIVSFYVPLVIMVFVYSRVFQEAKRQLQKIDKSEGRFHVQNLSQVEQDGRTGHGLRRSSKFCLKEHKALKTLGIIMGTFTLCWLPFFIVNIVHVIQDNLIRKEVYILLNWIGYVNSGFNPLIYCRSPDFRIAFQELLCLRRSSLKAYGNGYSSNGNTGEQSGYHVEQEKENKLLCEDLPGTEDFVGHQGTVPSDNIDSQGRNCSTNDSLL
- test-name: beta2AR agonists driving receptor internalization, pilot screen, cell-based, FAP fluorogen, flow cytometry, validation set (AID 504459);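 further: agonist-driven loss of surface beta2AR via internalization measured by FAP dye flow cytometry; reference of the scale not given here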
- test-settings: Am2.2-beta2AR cells, FAP surface receptor flow cytometry; at 10 µM; stronger effect = higher value
Exercise: for every item that follows, state its recorded response.
Give just the number in %; leave the unit off.

**Query** State, in one line, measured response of CNc1nc(Nc2ccccc2)nc(OCC(F)(F)F)n1
**Result** -3.68

**Query** State, in one line, measured response of CCn1c2ccccc2c2cc(CC(N)=O)ccc21
**Result** -19.5

**Query** State, in one line, measured response of CN1[C@@H](CC(=O)c2ccccc2)CCC[C@H]1C[C@H](O)c1ccccc1
**Result** 12.9

**Query** State, in one line, measured response of O=C(Oc1cccccc1=O)c1ccccc1
**Result** -20.4

**Query** State, in one line, measured response of COC(=O)c1cc(-c2c(C)oc3cc(OC)ccc3c2=O)c(C)o1
**Result** 7.03

**Query** State, in one line, measured response of c1ccc2c(c1)CCCC2C1=NCCN1 (configuration not stated)
**Result** -24.5

**Query** State, in one line, measured response of COc1ccc(C(=O)Nc2ccc(OC)c([N+](=O)[O-])c2)cc1Br
**Result** 8.89

**Query** State, in one line, measured response of CC1CCCc2sc3ncn(N)c(=N)c3c21 (configuration not stated)
**Result** 31.1

**Query** State, in one line, measured response of Cc1ccc2c(c1)c1c(n2C)C(=O)CCC1
**Result** 6.59

**Query** State, in one line, measured response of CN(C)CCOc1ccc(Cl)cc1C(C)(C)C
**Result** -20.4

**Query** State, in one line, measured response of Cc1nc2ccccc2c(=O)n1N
**Result** -0.52

**Query** State, in one line, measured response of C(=C\c1ccccc1)/CN1CCN(C(c2ccccc2)c2ccccc2)CC1
**Result** 11.4

**Query** State, in one line, measured response of Nc1nc2c(ncn2COCCO)c(=O)[nH]1
**Result** -6.98

**Query** State, in one line, measured response of Cc1ccc2[nH]c3c(c2c1)CN(C(=O)CN1CCSCC1)CC3
**Result** -263

**Query** State, in one line, measured response of Nc1c2c(nc3ccccc13)CCCC2
**Result** -14.3

**Query** State, in one line, measured response of CCc1cn([C@H]2C[C@H](O)[C@@H](CO)O2)c(=O)[nH]c1=O
**Result** 7.43

**Query** State, in one line, measured response of COc1cc(/C=C/C(=O)N2CCCC2)cc(OC)c1OC
**Result** -5.19

**Query** State, in one line, measured response of O=C(NCCCCCc1nc2ccccc2[nH]1)c1ccccc1Cl
**Result** 25.8

**Query** State, in one line, measured response of Cc1cc(C)c2c(CCl)cc(=O)oc2c1
**Result** -0.73

**Query** State, in one line, measured response of CC1COc2c(N3CCN(C)CC3)c(F)cc3c(=O)c(C(=O)O)cn1c23 (configuration not stated)
**Result** -5.81

**Query** State, in one line, measured response of COc1ccc(CCNC(=O)CC(c2ccccc2)c2cccc(C)c2O)cc1OC (configuration not stated)
**Result** 5.7

**Query** State, in one line, measured response of COc1ccc(C)cc1S(=O)(=O)Nc1ccc(F)cc1
**Result** 0.44

**Query** State, in one line, measured response of COc1cccc(OC)c1C(=O)Nc1nc2ccc([N+](=O)[O-])cc2s1
**Result** 4.56

**Query** State, in one line, measured response of Oc1ccc(Oc2ncc(Cl)cc2Cl)cc1
**Result** -11

**Query** State, in one line, measured response of CC(C)Cc1nc(NCCN2CCOCC2)c(C#N)c2c1COC(C)(C)C2
**Result** -20.4

**Query** State, in one line, measured response of CCN1CCN(C(=O)N[C@@H](C(=O)N[C@@H]2C(=O)N3[C@@H]2SC(C)(C)[C@@H]3C(=O)O)c2ccccc2)C(=O)C1=O
**Result** -5.92

**Query** State, in one line, measured response of CCc1cc2c3c(c(=O)oc2cc1O)CCCC3
**Result** 1.88

**Query** State, in one line, measured response of Cc1cccc(C)c1NS(=O)(=O)c1ccc(NC(=O)c2ccc(Cl)c([N+](=O)[O-])c2)cc1
**Result** -4.38

**Query** State, in one line, measured response of CC(C)=CCCC(C)CN1CCC(N2CCC(C(=O)N3CCCC3)CC2)CC1 (configuration not stated)
**Result** 35

**Query** State, in one line, measured response of CN(C)CCCN1c2ccccc2CCc2ccc(Cl)cc21
**Result** 38.7

**Query** State, in one line, measured response of COc1ccc(/C=N\NC(=O)CCc2c(C)n[nH]c2C)c(OC)c1OC
**Result** 3.8

**Query** State, in one line, measured response of CC(=O)OCC(OC(C)=O)C(OC(C)=O)C(OC(C)=O)C(=O)Nc1cccc(C)c1 (configuration not stated)
**Result** 4.29

**Query** State, in one line, measured response of CC1(C)CC(=O)C(C(=O)CCCCC(=O)C2C(=O)CC(C)(C)CC2=O)C(=O)C1
**Result** -2.15

**Query** State, in one line, measured response of COc1ccc(C(=O)NC(=O)NC2(C(Cl)(Cl)Cl)OCCO2)cc1
**Result** -20.1

**Query** State, in one line, measured response of NC(N)=NC(=O)c1nc(Cl)c(N)nc1N
**Result** -22.4

**Query** State, in one line, measured response of Cc1ccc(C(=O)NC(=S)NCCCN2CCOCC2)cc1
**Result** 1.89

**Query** State, in one line, measured response of CC(=O)Nc1nc(CCC(C)C)cc2c1c(=O)oc1ccccc12
**Result** -19.1

**Query** State, in one line, measured response of COc1ccc(CCn2c(C)cc3c(c2=O)C(c2ccncc2)C(C#N)=C(N)O3)cc1OC (configuration not stated)
**Result** 10.6

**Query** State, in one line, measured response of O=P(O)(O)CP(=O)(O)O
**Result** -17.7

**Query** State, in one line, measured response of O=c1c2ccccc2nc2n1-c1ccccc1CCC2
**Result** -9.83

**Query** State, in one line, measured response of CCn1cc(C(=O)O)c(=O)c2cc(F)c(N3CCNCC3)cc21
**Result** 29.6

**Query** State, in one line, measured response of O=P(c1ccccc1)(c1ccccc1)c1nc(-c2ccc(Cl)cc2)oc1N1CCOCC1
**Result** -13.6

**Query** State, in one line, measured response of CCc1cccc(OC2OC(CO)C(O)C(O)C2NC(C)=O)c1 (configuration not stated)
**Result** -16.8

**Query** State, in one line, measured response of COc1ccc(-c2cc(=O)oc3c(C)c(O)c(CN(C)C)cc23)cc1
**Result** -14.6

**Query** State, in one line, measured response of C[C@]12CC[C@@H]3c4ccc(OS(=O)(=O)O)cc4CC[C@H]3[C@@H]1CCC2=O
**Result** 0.04

**Query** State, in one line, measured response of COc1cccc(N2C(=O)[C@H]3C(C(=O)c4cnccn4)=NN[C@H]3C2=O)c1
**Result** -6.07

**Query** State, in one line, measured response of COc1ccc(C(=O)/C=C2/c3ccccc3CC(C)(C)N2C)cc1
**Result** 23.7
